Data provenance is PubChem BioAssay AID1159580.

Kindly supply the reported normalized growth values for the records listed here.
Protocol description: chemical genetic growth profiling, strain panel (AID 1159580);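 note: tested at 20 µM; growth read once vehicle control cultures reached saturation at 30 °C; 1 = growth at the plate median or of vehicle wells; lower values mean less growth of the strain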
Condition context: S. cerevisiae deletion strains, growth OD, locus YMR205C, strain PFK2 (second series), active compounds read low
Hit rate of the full screen: of about 5,500 compounds, about 2,000 (36%) were called active. About 18% were inconclusive and are not listed. The list shows a part of the results.

Supply measured normalized growth of O=S(=O)(Nc1cc(C(F)(F)F)ccc1F)c1cc(C(F)(F)F)ccc1Cl in your reply.
0.925 (inactive)

Supply measured normalized growth of O=C(NCc1ccco1)c1csc(C2COc3ccccc3O2)n1 (stereo unspecified) in your reply.
0.893 (inactive)

Supply measured normalized growth of CSc1c(C#N)c(-c2ccc(Cl)cc2)nn1C(=O)c1ccccc1Cl in your reply.
0.969 (inactive)

Supply measured normalized growth of OC(c1ccc(C(F)(F)F)cc1)c1cccc(C(F)(F)F)c1 (stereo unspecified) in your reply.
0.993 (inactive)

Supply measured normalized growth of N/C(=N/OC(=O)c1ccc(Cl)cc1)c1ccc(F)cc1F in your reply.
0.684 (active)

Supply measured normalized growth of Cc1nc(C(F)(F)F)c(C(=O)O/N=C(/N)c2ccc(Cl)cc2)s1 in your reply.
0.941 (inactive)

Supply measured normalized growth of Clc1ccc(-c2noc(CSC3=NCCN3)n2)cc1 in your reply.
0.938 (inactive)

Supply measured normalized growth of N=C(N)SCc1nc(-c2ccc(Cl)cc2)no1 in your reply.
0.981 (inactive)

Supply measured normalized growth of NC(=NC(=O)c1ccc(Cl)cc1)c1cccs1 in your reply.
0.836 (inactive)

Supply measured normalized growth of N#CC1=C(N)C(C#N)(C#N)C2(CCCCC2)C2CCCC=C12 (stereo unspecified) in your reply.
1 (inactive)

Supply measured normalized growth of COc1cc(Cl)c(NS(=O)(=O)c2cc(Br)c(Br)s2)c(OC)c1 in your reply.
0.948 (inactive)

* * *

Kindly supply the reported normalized growth values for the records listed here.
Protocol description: chemical genetic growth profiling, strain panel (AID 1159580);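 note: tested at 20 µM; growth read once vehicle control cultures reached saturation at 30 °C; 1 = growth at the plate median or of vehicle wells; lower values mean less growth of the strain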
Condition context: S. cerevisiae deletion strains, growth OD, locus YBR160W, strain CDC28, active compounds read low
Hit rate of the full screen: of about 5,500 compounds, about 2,000 (36%) were called active. Not shown: some 18% with an inconclusive outcome. The list shows a part of the results.

Supply measured normalized growth of COc1cc(C(=O)Oc2c(Cl)cc(Cl)cc2C=Nc2ccc([N+](=O)[O-])cc2C#N)cc(OC)c1OC in your reply.
0.974 (inactive)

Supply measured normalized growth of COc1cc(N=Cc2cc(Cl)cc(Cl)c2OC(=O)c2cc(OC)c(OC)c(OC)c2)c(OC)cc1Cl in your reply.
0.968 (inactive)

Supply measured normalized growth of Cc1cc(C(=O)O/N=C(/N)c2ccc(C(C)(C)C)cc2)no1 in your reply.
0.979 (inactive)

Supply measured normalized growth of CC(=O)C(Sc1nc2ccccc2s1)C(C)=O in your reply.
0.909 (inactive)

Supply measured normalized growth of CC(C)(O)C#Cc1ccc(/C=N\Nc2c(Cl)cc(Cl)cc2Cl)cc1 in your reply.
0.969 (inactive)

Supply measured normalized growth of NC(=NC(=O)c1ccc(Cl)cc1)c1cccs1 in your reply.
0.951 (inactive)

Supply measured normalized growth of O=C(NCc1ccco1)c1csc(C2COc3ccccc3O2)n1 (stereo not given) in your reply.
0.914 (inactive)

Supply measured normalized growth of Cc1cc(C(=O)O/N=C(/N)c2ccc([N+](=O)[O-])o2)no1 in your reply.
0.951 (inactive)

Supply measured normalized growth of COc1ccccc1C(C[N+](=O)[O-])c1c(N)n(C)c(=O)n(C)c1=O (stereo not given) in your reply.
0.953 (inactive)

Supply measured normalized growth of COc1cc(C(=O)Oc2c(Cl)cc(Cl)cc2C=Nc2cccc(C(F)(F)F)c2)cc(OC)c1OC in your reply.
0.968 (inactive)
